The reported numbers originate from PubChem BioAssay AID1851.

Molecular target: Cytochrome P450 1A2 (Homo sapiens) (UniProt P05177)
Sequence (P05177 whole entry, looked up): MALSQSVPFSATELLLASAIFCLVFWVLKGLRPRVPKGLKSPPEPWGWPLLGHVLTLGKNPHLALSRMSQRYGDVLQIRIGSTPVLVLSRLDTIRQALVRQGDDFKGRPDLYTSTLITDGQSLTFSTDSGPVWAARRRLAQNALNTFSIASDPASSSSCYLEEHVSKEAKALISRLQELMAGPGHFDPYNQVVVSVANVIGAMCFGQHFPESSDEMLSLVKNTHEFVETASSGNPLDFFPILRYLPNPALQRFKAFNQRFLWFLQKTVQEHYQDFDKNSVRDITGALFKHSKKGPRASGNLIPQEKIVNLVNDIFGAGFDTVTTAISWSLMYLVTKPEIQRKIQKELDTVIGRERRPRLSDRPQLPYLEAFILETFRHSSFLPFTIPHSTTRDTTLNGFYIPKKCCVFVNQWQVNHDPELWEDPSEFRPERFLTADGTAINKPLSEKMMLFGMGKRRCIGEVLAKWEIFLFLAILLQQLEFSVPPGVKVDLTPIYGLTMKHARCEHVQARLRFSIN
Test: Cytochrome panel assay with activity outcomes
Conditions: recombinant CYP, pro-luciferin dealkylation, luminescence, p450-cyp1a2; series mostly up to 57.1 µM
The campaign covered roughly 16,000 compounds. About 5,700 (36%) were called active. Another 24% or so got no clear call; they are omitted. The call rests on the fitted dose curve; in most records, active means well fitted curve in the direction sought with a large enough effect; inconclusive means small, poorly fitted or top-dose-only effect, or effect the other way; inactive means no such curve, though single readings can be large or run the other way. The list shows a part of the results.
# valid calls are active, inactive; nothing else

Example entries begin here.
molecule: Cc1nn(C)c(C(=O)NNC(=S)Nc2ccc(Cl)cc2)c1[N+](=O)[O-]
class-label: inactive
--
molecule: Cn1nccc1C(=O)Nc1ccc(Cl)cc1
class-label: active

Exercise: Field: outcome | Entry: NCCCc1ccc2oc3ccccc3c2c1
Solution: active

Exercise: Outcome logged for Cc1cccc(NC(=S)NNC(=O)CC(C)O)c1C (configuration not stated) in this assay:
Solution: inactive

Exercise: What did this assay record as the result for Cc1sc2nc(SCC(=O)C(C)(C)C)n(Cc3ccco3)c(=O)c2c1C ?
Solution: active

Exercise: Please share the test call associated with O=C1C2C3C=CC(C3)C2C(=O)N1/N=C/c1cn(Cc2ccc(F)cc2)c2ccccc12 (configuration not stated) .
Solution: inactive

Exercise: State the result this test recorded for O=[N+]([O-])/C=C/c1cn(Cc2ccccc2)c2ccccc12 .
Solution: active

Exercise: Each molecule tested received a call. Report the one for O=C1C2C3C=CC(C3)C2C(=O)N1/N=C/c1cn(Cc2ccccc2)c2ccccc12 (configuration not stated) .
Solution: active

Exercise: Recorded call for Cc1ccc(C(C(=O)NC2CCCCC2)N2CCN(C(=O)c3ccco3)CC2)cc1 (configuration not stated) ?
Solution: inactive

Exercise: Please share the test call associated with Cc1nn(Cc2c(F)c(F)c(F)c(F)c2F)c(C)c1NC(=O)c1c(-c2ccccc2)nn(-c2ccccc2)c1C .
Solution: inactive

---

Target: Cytochrome P450 1A2 (Homo sapiens)
Test: Cytochrome panel assay with activity outcomes
Conditions: recombinant CYP, pro-luciferin dealkylation, luminescence, p450-cyp1a2; series mostly up to 57.1 µM
About 5,700 (36%) of roughly 16,000 compounds were called active. Roughly 24% stayed inconclusive and do not appear here. Calls follow the shape of the dose curve; as a rule, active = well fitted curve in the direction sought with a large enough effect; inconclusive = small, poorly fitted or top-dose-only effect, or effect the other way; inactive = no such curve, though single readings can be large or run the other way. This is one part of the list.
Can you answer with just one of these options? active, inactive

line-notation: COc1ccc(-n2c(=O)c(C)nc3cnc(N4CCOCC4)nc32)cc1
study-target: Cytochrome P450 1A2 (Homo sapiens)
class-label: active

Exercise: What call does the record list for COc1ccc(-n2c(=O)c(C)nc3cnc(N4CCNCC4)nc32)cc1 ?
Solution: active

Exercise: Status in this test for CC(=O)Nc1ccccc1C(=O)C(=O)O ?
Solution: inactive

Exercise: Hi team, can someone confirm the assay call for CCOc1cc2c(C)cc(=O)oc2cc1Cl ?
Solution: active

---

Target: Cytochrome P450 1A2 (Homo sapiens) (UniProt P05177)
Experiment: Cytochrome panel assay with activity outcomes
Settings: recombinant CYP, pro-luciferin dealkylation, luminescence, p450-cyp1a2; series mostly up to 57.1 µM
Screen size: about 16,000 compounds; about 5,700 (36%) were called active. About 24% were inconclusive and are not listed. Calls come from the whole dose curve; as a rule, active = well fitted curve in the direction sought with a large enough effect; inconclusive = small, poorly fitted or top-dose-only effect, or effect the other way; inactive = no such curve, though single readings can be large or run the other way. The list shows a part of the results.
Write down one outcome, taken from label 1 (active), label 0 (inactive)

For orientation, consider the following solved cases.
molecule: CS(=O)(=O)Nc1c(O)ccc2c1CCC[C@H]2C1=NCCN1
study-target: Cytochrome P450 1A2 (Homo sapiens) (UniProt P05177)
class-label: label 0

molecule: CN(C)C(=O)/N=N\C(=O)N(C)C
study-target: Cytochrome P450 1A2 (Homo sapiens) (UniProt P05177)
class-label: label 0

molecule: CCOC(=O)CSc1nc2c(cnn2-c2ccc(C)cc2)c(=O)[nH]1
study-target: Cytochrome P450 1A2 (Homo sapiens) (UniProt P05177)
class-label: label 1

molecule: COc1ccc(NC(=S)Nc2ncccc2C)c(OC)c1
study-target: Cytochrome P450 1A2 (Homo sapiens) (UniProt P05177)
class-label: label 1

molecule: CCOC(=O)CSc1cc(CS(=O)c2ccc(Cl)cc2)nc(-c2ccccc2)n1 (stereo not given)
study-target: Cytochrome P450 1A2 (Homo sapiens) (UniProt P05177)
class-label: label 1

Exercise: Which outcome was entered for the molecule Cc1ccc(Nc2c([N+](=O)[O-])ccc3c2=NC2(CCCCC2)N=3)cc1 in this test?
Solution: label 1

Exercise: For this molecule, state the assay outcome: Nc1nc(Br)c2c(F)cccc2c1-c1ccc(F)cc1
Solution: label 1

Exercise: Query: recorded result category for C[N+]1(C)CCC(=C(c2ccccc2)c2ccccc2)CC1 in this test
Solution: label 0

Exercise: What was the test verdict on COc1ccc(CNc2ncnc3ccc(-c4ccccc4OC)cc23)c(OC)c1 ?
Solution: label 1

Exercise: Test call, this molecule: O=C(c1ccccc1)c1ccc(OCCn2cnc3ccccc3c2=O)cc1
Solution: label 0

Exercise: Which result was noted for this molecule in the test: NC1=NC(=O)/C(=C/c2cccs2)S1
Solution: label 1

Exercise: Record request — test call for Nc1nc(Br)c2ccccc2c1-c1ccc(F)cc1
Solution: label 1

Exercise: // outcome(item) with item = CC(C)c1nnc(NC(=O)CCC(=O)N2CCN(c3ccccn3)CC2)s1
Solution: label 0

Exercise: Tell me the recorded outcome of this test for CC(C)=CC(=O)Nc1nnc(C(C)C)s1 .
Solution: label 1

Exercise: Please share the test call associated with Nc1cc(N)nc(SCC(=O)c2ccccc2)n1 .
Solution: label 0
